# Test system: THRa:RXRa (NR concentration 90 nM, RXRa partner concentration 90 nM)
# assay-overview: PBM binding z-score (relative to random genomic background probes); higher = stronger binding; sequences stand for … in GC…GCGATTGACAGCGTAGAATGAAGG
parameter: PBM binding z-score

Known results for sequences:
| residue-sequence | PBM binding z-score |
| --- | --- |
| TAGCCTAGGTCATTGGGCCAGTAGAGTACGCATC | 2.88 |
| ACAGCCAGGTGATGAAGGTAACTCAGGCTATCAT | 1.1 |
| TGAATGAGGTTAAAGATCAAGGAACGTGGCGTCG | 2.41 |
| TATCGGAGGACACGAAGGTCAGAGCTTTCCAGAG | 2.88 |
| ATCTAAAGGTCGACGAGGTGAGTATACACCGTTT | 3.82 |
| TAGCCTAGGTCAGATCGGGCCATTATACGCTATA | 4.25 |
| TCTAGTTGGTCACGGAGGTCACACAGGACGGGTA | 3.75 |
| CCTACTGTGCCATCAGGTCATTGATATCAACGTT | 3.64 |

Prompt: Sample `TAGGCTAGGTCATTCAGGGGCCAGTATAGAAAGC` — what was its PBM binding z-score?
Completion: 3.7

Prompt: Also `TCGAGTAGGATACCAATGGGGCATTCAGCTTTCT` , if possible.
Completion: -1.38

Prompt: Also `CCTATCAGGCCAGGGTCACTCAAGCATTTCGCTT` , if possible.
Completion: 3.19

Prompt: Also `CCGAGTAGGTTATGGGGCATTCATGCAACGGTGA` , if possible.
Completion: 0.148

Data provenance is the supplement of paper PMC6555819.
